Experiment: Oral pharmacokinetics of digoxin with and without BM pre-treatment
Format: in vivo, male Sprague-Dawley rat
Conditions: male, Sprague-Dawley, rat, plasma, po, 0.2 mg/kg, BM pretreated rats (31 mg/kg/day 7 days); digoxin 0.2 mg/kg oral
Source text: Rats were divided in two groups (total 40 rats; 10 rats each group) for both probe drugs viz. control and BM pre-treated group. Pharmacokinetic parameters of probe drugs in plasma were derived from plasma concentration-time profile of probe drugs by Non-Compartmental analysis using WinNonlin Ver 5.1 (Pharsight Corporation, Mountain Veiw, CA).
value-kind: CL/F
Returns: string containing the number followed by the unit.

Documented CL/F of C[C@H]1O[C@@H](O[C@H]2[C@@H](O)C[C@H](O[C@H]3[C@@H](O)C[C@H](O[C@H]4CC[C@@]5(C)[C@H](CC[C@@H]6[C@@H]5C[C@@H](O)[C@]5(C)[C@@H](C7=CC(=O)OC7)CC[C@]65O)C4)O[C@@H]3C)O[C@@H]2C)C[C@H](O)[C@@H]1O [Digoxin, digoxin] : 3.53 mL/h/kg

* * *

Assay: Oral pharmacokinetics of digoxin with and without BM pre-treatment
Assay type: in vivo, male Sprague-Dawley rat
Conditions: male, Sprague-Dawley, rat, plasma, po, 0.2 mg/kg, vehicle pretreated rats; digoxin 0.2 mg/kg oral
value-kind: half-life (h)
Answer with a number only, understood to be in h.

Reported half-life of C[C@H]1O[C@@H](O[C@H]2[C@@H](O)C[C@H](O[C@H]3[C@@H](O)C[C@H](O[C@H]4CC[C@@]5(C)[C@H](CC[C@@H]6[C@@H]5C[C@@H](O)[C@]5(C)[C@@H](C7=CC(=O)OC7)CC[C@]65O)C4)O[C@@H]3C)O[C@@H]2C)C[C@H](O)[C@@H]1O : 2.92

* * *

Test: Oral pharmacokinetics of digoxin with and without BM pre-treatment
Format: in vivo, male Sprague-Dawley rat
Details: male, Sprague-Dawley, rat, plasma, po, 0.2 mg/kg, vehicle pretreated rats; digoxin 0.2 mg/kg oral
value-kind: AUC(0-inf)
// unit must come after the numeric part

The recorded AUC(0-inf) for entry C[C@H]1O[C@@H](O[C@H]2[C@@H](O)C[C@H](O[C@H]3[C@@H](O)C[C@H](O[C@H]4CC[C@@]5(C)[C@H](CC[C@@H]6[C@@H]5C[C@@H](O)[C@]5(C)[C@@H](C7=CC(=O)OC7)CC[C@]65O)C4)O[C@@H]3C)O[C@@H]2C)C[C@H](O)[C@@H]1O [Digoxin, digoxin] equals 51.5 ng·h/mL

* * *

Assay: Oral pharmacokinetics of carbamazepine and carbamazepine 10,11-epoxide with and without BM pre-treatment
Type: in vivo, male Sprague-Dawley rat
Settings: male, Sprague-Dawley, rat, plasma, po, 50 mg/kg, BM pretreated rats (31 mg/kg/day 7 days); carbamazepine 50 mg/kg oral; Mean ± SD
value-kind: AUC(0-inf) (µg·h/mL)
Express the result in µg·h/mL but write the number alone.

Sure, the documented AUC(0-inf) for NC(=O)N1c2ccccc2C=Cc2ccccc21 [CBZ, carbamazepine] is 169

* * *

Assay: Oral pharmacokinetics of digoxin with and without BM pre-treatment
Type: in vivo, male Sprague-Dawley rat
Settings: male, Sprague-Dawley, rat, plasma, po, 0.2 mg/kg, vehicle pretreated rats; digoxin 0.2 mg/kg oral
value-kind: Cmax (ng/mL)
Kindly answer with a numeric value in ng/mL, unit omitted.

Record summary for C[C@H]1O[C@@H](O[C@H]2[C@@H](O)C[C@H](O[C@H]3[C@@H](O)C[C@H](O[C@H]4CC[C@@]5(C)[C@H](CC[C@@H]6[C@@H]5C[C@@H](O)[C@]5(C)[C@@H](C7=CC(=O)OC7)CC[C@]65O)C4)O[C@@H]3C)O[C@@H]2C)C[C@H](O)[C@@H]1O [Digoxin, digoxin] : reported Cmax = 4.82
